Target: Protein AF-9 (Homo sapiens)
Assay: AF9 binding to AF4 blockers, potency – biochemical, cherry-picked samples, plate reader, dose response (AID 720495)
Settings: biochemical protein-protein interaction assay
Records with an inconclusive call do not appear.
measurement.kind: AC50

Previously resolved entries follow.
1. C[n+]1c(-c2ccccc2)c2cc(N)ccc2c2ccc(N)cc21 = 9.5 µM
2. COc1ccc2nc3ccccc3nc2c1N = 3.44 µM
3. Cc1ccc2nc(-c3ccc(NC(=S)NC4CC(C)(C)NC(C)(C)C4)cc3)sc2c1 = 7.34 µM
4. CCN(CCCl)c1cc(CN(C)C)cc(NC(=O)c2ccc(C(=O)Nc3cc(CN(C)C)cc(N(CC)CCCl)c3)cc2)c1 = 0.683 µM
5. Cc1cccc(N=NC(=S)NNc2cccc(C)c2)c1 = 0.212 µM

Problem: What value of measured AC50 is listed for `CN(C)c1ccc(N=C/C=C2/N(C)c3ccccc3C2(C)C)cc1` ?
Solution: 7.5 µM

====

Target: UniProt P42568
Assay: AF9 binding to AF4 blockers, potency – biochemical, cherry-picked samples, plate reader, dose response (AID 720495)
Settings: biochemical protein-protein interaction assay
Inconclusive results are not listed.
measurement.kind: AC50

Problem: Which measured AC50 belongs to `COC1=C(Nc2ccccc2OC)C(=O)c2ccccc2C1=O` , tested on UniProt P42568?
Solution: 3.9 µM

Problem: Subsequent entry: CN(C)c1ccc(CNCCC(Cc2ccccc2)c2ccco2)cc1 (stereo unspecified)
Solution: 5.44 µM

Problem: Subsequent entry: Cc1ccc2c(c1)C1CN(C)CCC1N2Sc1ccccc1[N+](=O)[O-] (stereo unspecified)
Solution: 5.01 µM

Problem: Subsequent entry: `Cc1[nH]c2ccccc2c1C(C#N)(C#N)C1C(=O)c2ccccc2C1=O`
Solution: 0.981 µM

Problem: Subsequent entry: `Brc1ccc(N/N=C(/N=Nc2nn[nH]n2)c2ccccc2)cc1`
Solution: 5.84 µM

Problem: Subsequent entry: `COc1ccc(N2CCN(CCCNC(=O)CCC(=O)N3CCOc4ccc(Cl)cc43)CC2)cc1`
Solution: 11.5 µM

====

Target: Protein AF-9 (Homo sapiens) (UniProt P42568)
Sequence (P42568 whole entry, looked up): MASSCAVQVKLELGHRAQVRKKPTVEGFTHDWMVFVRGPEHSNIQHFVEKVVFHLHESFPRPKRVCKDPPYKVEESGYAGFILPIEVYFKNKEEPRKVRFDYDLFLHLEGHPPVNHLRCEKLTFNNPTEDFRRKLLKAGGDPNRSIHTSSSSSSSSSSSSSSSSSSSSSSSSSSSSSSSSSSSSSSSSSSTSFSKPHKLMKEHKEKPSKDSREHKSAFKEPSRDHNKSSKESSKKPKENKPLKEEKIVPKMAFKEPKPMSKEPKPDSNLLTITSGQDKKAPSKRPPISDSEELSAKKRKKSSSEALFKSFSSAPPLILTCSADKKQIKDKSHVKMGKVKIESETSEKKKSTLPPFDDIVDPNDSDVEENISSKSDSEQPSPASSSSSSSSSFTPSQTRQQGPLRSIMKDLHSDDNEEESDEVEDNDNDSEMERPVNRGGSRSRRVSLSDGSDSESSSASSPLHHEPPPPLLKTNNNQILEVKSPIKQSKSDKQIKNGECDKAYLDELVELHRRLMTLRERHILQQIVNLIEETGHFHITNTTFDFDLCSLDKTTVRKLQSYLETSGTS
Test: AF9 binding to AF4 blockers, potency – biochemical, cherry-picked samples, plate reader, dose response (AID 720495)
Details: biochemical protein-protein interaction assay
Results filed as inconclusive are left out.
measurement.kind: AC50

Previously resolved entries follow.
1) COc1cccc(CNCCc2c[nH]c3ccccc23)c1OCc1ccccc1 = 11.5 µM
2) O=C1C(NS(=O)(=O)c2ccc(Cl)cc2)=C(N2CCCCC2)C(=O)c2ccccc21 = < 0.08 µM
3) Cc1ncc(CO)c(/C=N/NC(=S)Nc2ccc(Cl)c(Cl)c2)c1O = 5.79 µM

Next compound, AC50 to be filled in.
Problem: What value of measured AC50 is listed for `CN(C)c1ccc(C=c2c3ccccc3n3c2c2ccccc2[n+]3C)cc1` ?
Solution: 1.65 µM

====

Molecular target: Protein AF-9 (Homo sapiens) (UniProt P42568)
Test: AF9 binding to AF4 blockers, potency – biochemical, cherry-picked samples, plate reader, dose response (AID 720495)
Settings: biochemical protein-protein interaction assay
Records with an inconclusive call do not appear.
measurement.kind: AC50

1. COc1cc(OC)c2c(-c3ccccc3)cc(=O)oc2c1C(CCN1CCCC(C)C1)c1ccc(N(C)C)cc1 (stereo not given) = 0.943 µM

Problem: What value of measured AC50 is listed for `CCSc1ccc(-c2cc(NC=O)c3ncc(-c4cccc(C(=O)NCCN(C)C)c4)n3c2)cc1` ?
Solution: 0.798 µM

Problem: Subsequent entry: O=C1c2ccccc2NC(c2cccc([N+](=O)[O-])c2)N1O (stereo not given)
Solution: 11.2 µM

Problem: Subsequent entry: `COc1ccc(OC)c(Nc2c3ccccc3nc3ccccc23)c1`
Solution: 7.11 µM

Problem: Subsequent entry: `CCN(CC)c1ccc(CNc2ccc3c(c2)ncn3C(C)(C)C)cc1`
Solution: 3.48 µM

Problem: Subsequent entry: `CC1(C)CC(Nc2ccc(Nc3ccccc3)cc2)CC(C)(C)N1`
Solution: 6.78 µM

Problem: Subsequent entry: `CN(C(=O)c1ccc(NC(=O)Cc2ccc(NC(=O)C3CCN(C(=O)c4ccccc4)CC3)cc2)cc1)C1CC1`
Solution: 0.233 µM

Problem: Subsequent entry: COc1cc(O)c(C(CCN2CCCCC2)c2ccc(N(C)C)cc2)c(OC)c1 (stereo not given)
Solution: 10.2 µM

Problem: Subsequent entry: `CN1CCN(C2CCN(Cc3ccc(O)c4ncccc34)CC2)CC1`
Solution: 2.77 µM

Problem: Subsequent entry: `CN(C)CCCNC(=O)c1ccc(-c2cc(O)c3ncccc3c2)cc1`
Solution: 0.693 µM

====

Target: Protein AF-9 (Homo sapiens)
Assay: AF9 binding to AF4 blockers, potency – biochemical, cherry-picked samples, plate reader, dose response (AID 720495)
Settings: biochemical protein-protein interaction assay
Inconclusive results are not listed.
measurement.kind: AC50

Previously resolved entries follow.
1. COc1ccccc1C#Cc1ccc2c(c1)[C@H]1[C@H](CCN1C(=O)c1ccncc1)[C@@H](CO)N2 = 7.63 µM
2. C#CCOCCOCCOCCNc1nc(N2CCN(C(=O)[C@H](CCCCN)n3cc([C@@H](N)C(C)CC)nn3)CC2)nc(N2CCN(C(=O)[C@H](CCCCN)n3cc([C@@H](N)CC(C)C)nn3)CC2)n1 (some centres not stated) = 0.702 µM
3. O=C(COc1cc(F)ccc1[N+](=O)[O-])Nc1ccc(N2CCCCC2)cc1 = 9.04 µM
4. O=C(/C(=N/N=C/c1ccc(O)c(O)c1)c1ccccc1)c1ccccc1 = 1.62 µM
5. COc1cc2c(c(OC)c1OC)-c1ccc(O)c(=O)cc1[C@@H](N)CC2 = 2.3 µM
6. C[n+]1c(-c2ccc(C=NNC(=O)c3ccc(C(=O)NN=Cc4ccc(-c5cn6ccccc6[n+]5C)cc4)cc3)cc2)cn2ccccc21 = 0.804 µM

Problem: What value of measured AC50 is listed for `O=C(c1ccc(-c2cc(O)c3ncccc3c2)cc1)N1CCNCC1` ?
Solution: 0.426 µM

Problem: Subsequent entry: `Oc1cc(-c2ccncc2)cc2cccnc12`
Solution: 3.01 µM

Problem: Subsequent entry: `COc1ccc(C#Cc2ccc3c(c2)[C@H]2[C@H](CCN2C(=O)c2ccncc2)[C@@H](CO)N3)cc1`
Solution: 10.7 µM

Problem: Subsequent entry: `COc1ccc(S(=O)(=O)/N=C2\C=C(Nc3ccc(O)cc3)C(=O)c3ccccc32)cc1`
Solution: 0.724 µM

Problem: Subsequent entry: CCOc1ccc(NCc2cccn2-c2nnc(N3CCC(C(=O)NCCCN4CCCCC4CC)CC3)s2)cc1 (configuration not stated)
Solution: 4.01 µM

Problem: Subsequent entry: `CCN(CC)c1ccc(/C=C/c2ccc3ccc(OC)cc3[n+]2CC)cc1`
Solution: 2.36 µM

Problem: Subsequent entry: `C[C@@H]1CN([C@@H](C)CO)C(=O)c2cc(N(C)C)ccc2O[C@@H]1CN(C)Cc1ccc(-c2ccccc2)cc1`
Solution: 8.93 µM

Problem: Subsequent entry: `NC(=NCCCCCCN=C(N)/N=C(\N)Nc1ccc(Cl)cc1)/N=C(\N)Nc1ccc(Cl)cc1`
Solution: 5.27 µM

Problem: Subsequent entry: `O=C(O)CCCNc1cc(N2CCN(C(=O)c3ccco3)CC2)c2noc3c2c1C(=O)c1ccccc1-3`
Solution: 10.6 µM

====

Target: Protein AF-9 (Homo sapiens)
Experiment: AF9 binding to AF4 blockers, potency – biochemical, cherry-picked samples, plate reader, dose response (AID 720495)
Conditions: biochemical protein-protein interaction assay
Records with an inconclusive call do not appear.
AC50 listing for selected compounds.

1. Oc1c(C(c2ccccn2)N2CCCCC2)cc(Cl)c2cccnc12 (stereo not given) = 1.84 µM
2. CC1(C)CNc2cc(N)ccc2S1 = 2.52 µM
3. CC(C)(C)OC(=O)N1CCCN(C(c2ccnc3ccccc23)c2nnnn2-c2ccc3c(c2)OCCO3)CC1 (stereo not given) = 0.312 µM
4. COc1cc(OC)c2c(-c3ccccc3)cc(=O)oc2c1C(CCN1CCCCC1)c1ccc2c(c1)OCO2 (stereo not given) = 1.08 µM
5. CN(CCc1ccccc1)C(=O)c1ccc(NC(=O)Cc2ccc(NC(=O)C3CCN(C(=O)C4CCCC4)CC3)cc2)cc1 = < 0.08 µM
6. CN(C)c1ccc(N=Cc2cccn2C)cc1 = 0.83 µM
7. CCCCCc1cc(=O)oc2c(C(CCN3CCCC3)c3ccc(N(C)C)cc3)c(OC)cc(OC)c12 (stereo not given) = 2.31 µM
8. Cc1ccn2c(Nc3ccc4c(c3)OCO4)c(-c3ccccn3)nc2c1 = 3.55 µM

Problem: What value of measured AC50 is listed for `CN1\C(=C/C=C/C=C/C=[N+](C)C)C(C)(C)c2ccccc21` ?
Solution: 9.97 µM

Problem: Subsequent entry: `CNC[C@H](Cc1ccccc1)NC[C@@H](Cc1cccc2ccccc12)NCCc1ccc(C)cc1`
Solution: 10.1 µM

Value source: PubChem BioAssay AID720495
